method summary: yeast growth modulation, basal conditions, primary screen, YJM789 clinical isolate, OD600, 24 h (AID 1089);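 also: growth of clinical yeast isolate S. cerevisiae YJM 789 seeded 1000 cells per well; test concentration not given here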
recorded conditions: S. cerevisiae YJM789 growth, higher = more signal, called active from +8 up or from −8 down
If the reported z-score equals or exceeds 0.03, assign TRUE. If not, assign FALSE.

{"molecule": "CO[C@H]1COC(=O)CC=C[C@H](C)[C@@H](OC)COC(=O)[C@@H](C)COC(=O)CC=C[C@@H]1C", "class": "TRUE"}
{"molecule": "CCOC(=O)[C@H](Cc1ccccc1)NC(=O)CCC1CC(OC(=O)NCCc2ccc(F)cc2)CC2(CCCC(COC(=O)NCC3CCCCC3)O2)O1 (some centres not stated)", "class": "TRUE"}
{"molecule": "C[C@@H](c1ccccc1)N1C(=O)[C@H]2[C@H]3[C@H](O)[C@H](O)CC(=NO[C@@H]4O[C@H](CO)[C@@H](O)[C@H](O)[C@H]4O)[C@H]3CC[C@H]2C1=O", "class": "FALSE"}
{"molecule": "CO[C@@H]1C=CCC(=O)N[C@@H](C)C(=O)OC[C@@H](OC)[C@H](C)CCCC(=O)OC[C@H]1C", "class": "FALSE"}
{"molecule": "COc1ccc(O[C@H]2C=C[C@@H](c3ccccc3)O[C@@H]2CON=C(C)C)cc1", "class": "TRUE"}
{"molecule": "O=C1C=C[C@@H](O)[C@@H]2[C@@H]3C(=O)N(C[C@@H]4CCCO4)C(=O)[C@@H]3CC[C@@H]12", "class": "FALSE"}
{"molecule": "C[C@H](ON=C1[C@H]2CCn3c(=O)n(-c4ccccc4)c(=O)n3[C@H]2[C@H](O)[C@@H]2O[C@H]12)c1cn([C@H](CO)Cc2ccccc2)nn1", "class": "FALSE"}
